Biological target: T1, human Nectin-4 (human, UniProt Q96NY8 32-510)
T1 sequence (looked up): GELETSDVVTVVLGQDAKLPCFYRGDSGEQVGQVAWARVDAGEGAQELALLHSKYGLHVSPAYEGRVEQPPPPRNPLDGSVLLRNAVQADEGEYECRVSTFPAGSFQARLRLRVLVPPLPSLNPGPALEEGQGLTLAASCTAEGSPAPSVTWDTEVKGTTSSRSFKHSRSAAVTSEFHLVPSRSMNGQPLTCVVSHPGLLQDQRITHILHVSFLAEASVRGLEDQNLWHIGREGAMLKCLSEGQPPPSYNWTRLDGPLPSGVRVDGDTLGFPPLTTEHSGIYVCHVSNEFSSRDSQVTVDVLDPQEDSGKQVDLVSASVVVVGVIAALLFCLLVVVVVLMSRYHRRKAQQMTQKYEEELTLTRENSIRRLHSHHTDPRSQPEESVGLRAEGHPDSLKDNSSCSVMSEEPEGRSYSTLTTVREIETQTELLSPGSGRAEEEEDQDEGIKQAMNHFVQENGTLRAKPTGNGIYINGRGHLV
Assay: cell-based or functional assay
readout kind: Percentage of cell killing at the highest concentration (%)
Kindly provide the numeric value in % only, without the unit symbol.

Challenge: Quick check: Percentage of cell killing at the highest concentration of 20M12 hz01-E (antibody, human IgG1, kappa, V domains shown, vcMMAE conjugated to the TECP-reduced antibody; residues not stated; DAR 4.0±1) VH: QVQLVQSGAEVKKPGASVKVSCKASGYTFTSYYIHWVRQAPGQRLEWMGWIYPGNANNKYNENFKGRVTITRDTSASTAYMELSSLRSEDTAVYYCARSVYYFDYWGQGTLVTVSS VL: EVVMTQSPATLSVSPGERATLSCKASQSVSNDVAWYQQKPGQAPRLLIYYASNRNTGIPARFSGSGSGTEFTLTISSLQSEDLAVYFCQQDYSSPYTFGGGTKVEIKR ?
Response given: 32.2

Challenge: # iterate: 42D20 hz43-E (antibody, V domains shown, vcMMAE conjugated to the TECP-reduced antibody; residues not stated; DAR 4.0±1) VH: QVQLQESGPGLVKPSETLSLTCTVSGFSLIDYGVSWIRQPPGKGLEWIGVIWGDAKIYYNSVLKSRVTISKDNSKSQVSLKLSSVTAADTAVYYCAKQGGLLFYAMDYWGQGTLVTVSS VL: DIVMTQSPDSLAVSLGERATINCKSSQSLLNTYSQKNYLAWYQQKPGQSPKLLIYFASTRESGVPDRFSGSGSETDFTLTISSLQAEDLAVYFCQQHYNTPFTFGAGTKLELKR
Response given: 42.5

Challenge: Please give the result for 20M12 xiIgG-E (antibody, V domains shown, vcMMAE conjugated to the TECP-reduced antibody; residues not stated; DAR 4.0±1) VH: QVQLQQSGPELVKPGASVRISCKASGYTFTSYYIHWVKQRPGQGLEWIGWIYPGNANNKYNENFKGKATLTADKSSSTAYMQLSSLTSEDSAVYFCARSVYYFDYWGQGTTLTVSS VL: SVVMTQTPKFLLVSAGDRVTITCKASQSVSNDVAWYQQKPGQSPKLLIYYASNRNTGVPDRFTGSGYGTDFTFNISTVQAEDLAVYFCQQDYSSPYTFGGGTKLEIKR too.
Response given: 41.4

Challenge: Subsequent entry: 42D20 hz63-E (antibody, V domains shown, vcMMAE conjugated to the TECP-reduced antibody; residues not stated; DAR 4.0±1) VH: QVQLQESGPGLVKPSETLSLTCTVSGFSLIDYGVSWIRQPPGKGLEWIGVIWGGGKIYYNSVLKSRVTISKDNSKSQVSLKLSSVTAADTAVYYCAKQGGLLFYAMDYWGQGTLVTVSS VL: DIVMTQSPDSLAVSLGERATINCKSSQSLLNTYSQKNYLAWYQQKPGQSPKLLIYFASTRESGVPDRFSGSGSETDFTLTISSLQAEDLAVYFCQQHYNTPFTFGAGTKLELKR
Response given: 47

Challenge: Another: 42D20 hz10-E (antibody, V domains shown, vcMMAE conjugated to the TECP-reduced antibody; residues not stated; DAR 4.0±1) VH: QVQLQESGPGLVKPSETLSLTCTVSGFSLIDYGVSWIRQPPGKGLEWIGVIWGDGKIYYNSVLKSRVTISKDNSKSQVSLKLSSVTAADTAVYYCAKQGGLLFYAMDYWGQGTLVTVSS VL: DIVMTQSPDSLAVSLGERATINCKSSQSLLNSYSQKNYLAWYQQKPGQPPKLLIYFASTRESGVPDRFSGSGSGTDFTLTISSLQAEDVAVYYCQQHYNTPFTFGAGTKLELKR
Response given: 40.8

Challenge: Same for 42D20 hz64-E (antibody, V domains shown, vcMMAE conjugated to the TECP-reduced antibody; residues not stated; DAR 4.0±1) VH: QVQLQESGPGLVKPSETLSLTCTVSGFSLIDYGVSWIRQPPGKGLEWIGVIWGGGKIYYNSVLKSRVTISKDNSKSQVSLKLSSVTAADTAVYYCAKQGGLLFYAMDYWGQGTLVTVSS VL: DIVMTQSPDSLAVSLGERATINCKSSQSLLNKYSQKNYLAWYQQKPGQPPKLLIYFASTRESGVPDRFSGSGSGTDFTLTISSLQAEDVAVYYCQQHYNTPFTFGAGTKLELKR
Response given: 40.9

Challenge: Now this one: 42D20 hz44-E (antibody, V domains shown, vcMMAE conjugated to the TECP-reduced antibody; residues not stated; DAR 4.0±1) VH: QVQLQESGPGLVKPSETLSLTCTVSGFSLIDYGVSWIRQPPGKGLEWIGVIWGDAKIYYNSVLKSRVTISKDNSKSQVSLKLSSVTAADTAVYYCAKQGGLLFYAMDYWGQGTLVTVSS VL: DIVMTQSPDSLAVSLGERATINCKSSQSLLNKYSQKNYLAWYQQKPGQPPKLLIYFASTRESGVPDRFSGSGSGTDFTLTISSLQAEDVAVYYCQQHYNTPFTFGAGTKLELKR
Response given: 42.7

Challenge: Quick one: 20M12 hz11-E (antibody, human IgG1, kappa, V domains shown, vcMMAE conjugated to the TECP-reduced antibody; residues not stated; DAR 4.0±1) VH: QVQLVQSGAEVKKPGASVKVSCKASGYTFTSYYIHWVRQAPGQRLEWMGWIYPGNANNKYNENFKGRVTITADKSASTAYMELSSLRSEDTAVYYCARSVYYFDYWGQGTLVTVSS VL: EVVMTQSPATLSVSPGERATLSCKASQSVSNDVAWYQQKPGQAPRLLIYYASNRNTGIPARFSGSGSGTEFTLTISSLQSEDLAVYFCQQDYSSPYTFGGGTKVEIKR
Response given: 38.3
